target: RPtag (large); experiment: Fluorescence anisotropy Kd of rhodamine labeled RPtag (small) peptides for RPtag (large); format: binding, Thermoanaerobacter tengcongensis; details: 50 nM N-terminal Rhodamine B RP-Tag Small; 50 mM Tris pH 8.0, 150 mM NaCl, 10 mM 2-mercaptoethanol, 0.005% Tween 20
No end group written: not given here.
TEST_READOUT: Kd
Numeric answer plus unit only.

What value of measured Kd is listed for GEKIPNFIPAELKLITKENVQ [RP-Tag Small] ?
8 nM

====

test system: RPtag (large); assay: Association/dissociation kinetics of RPtag (small) peptides with RPtag (large) by fluorescence anisotropy; type: binding, Thermoanaerobacter tengcongensis; settings: S*-LS transition; calculated from measured koff and Kd
Sequence (as listed by the source): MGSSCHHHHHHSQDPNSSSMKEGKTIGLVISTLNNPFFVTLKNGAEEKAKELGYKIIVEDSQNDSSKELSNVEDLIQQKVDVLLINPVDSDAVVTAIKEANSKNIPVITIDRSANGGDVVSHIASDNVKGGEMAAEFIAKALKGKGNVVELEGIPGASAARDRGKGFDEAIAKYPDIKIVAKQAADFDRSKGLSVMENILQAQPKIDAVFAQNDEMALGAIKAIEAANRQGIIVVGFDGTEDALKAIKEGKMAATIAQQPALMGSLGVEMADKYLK
TEST_READOUT: kon (M^−1 min^−1 ) (×10^7)

Known results for sequences:
                           polymer_sequence                test_readout                       result
0                      IPAELKLITKENVQ [Nd7]  kon (M^−1 min^−1 ) (×10^7)  1.8 ± 0.4 ×10^7 M^−1 min^−1
1              GEKIPNFIPAELKLITKANVQ [e18a]  kon (M^−1 min^−1 ) (×10^7)   16 ± 0.8 ×10^7 M^−1 min^−1
2               KIPNFIPAELKLITKE [Nd2, Cd3]  kon (M^−1 min^−1 ) (×10^7)  8.2 ± 0.3 ×10^7 M^−1 min^−1
3                  IPNFIPAELKLITKENVQ [Nd3]  kon (M^−1 min^−1 ) (×10^7)  8.8 ± 0.3 ×10^7 M^−1 min^−1
4  KIPNFIPAELKLITKANAA [Nd2, e18a, v20a, q21a]  kon (M^−1 min^−1 ) (×10^7)  3.6 ± 0.3 ×10^7 M^−1 min^−1
5                       PAELKLITKENVQ [Nd8]  kon (M^−1 min^−1 ) (×10^7)  9.3 ± 0.3 ×10^7 M^−1 min^−1
6  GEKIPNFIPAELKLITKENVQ [v20a, RPtag(small) with V20 changed to alanine]  kon (M^−1 min^−1 ) (×10^7)  6.8 ± 0.5 ×10^7 M^−1 min^−1
7         KIPNFIPAELKLITKA [Nd2, Cd3, e18a]  kon (M^−1 min^−1 ) (×10^7)     40 ± 2 ×10^7 M^−1 min^−1
8                    GEKIPNFIPAELKLIT [Cd5]  kon (M^−1 min^−1 ) (×10^7)     11 ± 7 ×10^7 M^−1 min^−1
9    KIANFIPAELKLITKA [Nd2, Cd3, p5a, e18a]  kon (M^−1 min^−1 ) (×10^7)     33 ± 2 ×10^7 M^−1 min^−1

I'm curious: which kon (M^−1 min^−1 ) (×10^7) was measured for KIPNFIPAELKLITKENVQ [Nd2] tested on RPtag (large)?
5.3 ± 1.3 ×10^7 M^−1 min^−1

Moving on to GEKIPNFIPAEAKLITKENVQ [l12a]
4.3 ± 1.2 ×10^7 M^−1 min^−1

Moving on to GEKIPNFIPAELKLITK [Cd4]
22 ± 2 ×10^7 M^−1 min^−1
